assay: Cell viability assay (MTT); type: cell-based; details: human, Supt-1 cells, Cell line Supt-1, about 14 hours incubation, read-out: Cytotoxicity concentration (CC50)
Below, each entry is listed alongside its reported CC50.

These recorded examples may help you get a feel for the data.
{"columns": ["COMPOUND", "MEASURED_METRIC", "RESULT"],
 "data": [
  ["C[C@]1(F)[C@H](n2ccc(=O)[nH]c2=O)O[C@H](CO)[C@@]1(C)O", "CC50", "> 1000 µM"],
  ["CC1(O)[C@@H](CO)OC(n2cnc3c(NC4CC4)ncnc32)[C@]1(C)F (stereo partly shown)", "CC50", "424 µM"],
  ["C[C@]1(F)[C@H](n2ccc(N)nc2=O)O[C@H](CO)[C@@]1(C)O", "CC50", "> 1000 µM"]
]}

Param item = C[C@]1(F)C(n2cnc3c(N)ncnc32)O[C@H](CO)[C@]1(C)O (stereo partly shown) ; retrieve measured CC50.
> 1000 µM

Data origin: patent US8227431B2
